The measurements presented in this section are drawn from ChEMBL document CHEMBL1139865.

assay: Half life in monkey at 1.1 mg/kg, iv; type: ADME, organism-based, Macaca mulatta; design: dose 1.1 mg/kg, route intravenous; settings: rhesus monkey, in vivo
Metric name: half-life (h)
Kindly answer with a numeric value in h, unit omitted.

The compound identified as Cn1c(=O)cc(N2CCC[C@@H](N)C2)n(Cc2ccccc2C#N)c1=O.O=C(O)c1ccccc1 [ALOGLIPTIN BENZOATE] registered its half-life at 5.74

###

assay: AUC in dog at 3 mg/kg, po; format: ADME, organism-based, Canis lupus familiaris; parameters: dose 3 mg/kg, route oral; settings: plasma
Metric name: AUC
Give the figure together with its unit, number first.

The molecule identified as `Cl.Cn1c(=O)cc(N2CCC[C@@H](N)C2)n(Cc2ccccc2C#N)c1=O` registered its AUC at 1610 ng·h/mL

###

assay: Half life in rat at 10 mg/kg, po; format: ADME, organism-based; design: dose 10 mg/kg, route oral; details: in vivo
Metric name: half-life (min)
Kindly answer with a numeric value in min, unit omitted.

The molecule identified as `N#Cc1ccccc1Cn1c(N2CCC[C@@H](N)C2)nc2ccc(F)cc2c1=O.O=C(O)C(F)(F)F` registered its half-life at 146

###

test: in vitro; details: human, liver microsomes
Metric name: half-life at 1 µM (h)
Kindly answer with a numeric value in h, unit omitted.

Reference set (4 entries):
- Compound: "N#Cc1ccccc1Cn1c(N2CCC[C@@H](N)C2)nc2cc(N3CCOCC3)c(F)cc2c1=O"
  half-life at 1 µM, h: 0.55
- Compound: "COc1ccc2nc(N3CCC[C@@H](N)C3)n(Cc3ccccc3C#N)c(=O)c2c1"
  half-life at 1 µM, h: 1.37
- Compound: "COc1cc2c(=O)n(Cc3ccccc3C#N)c(N3CCC[C@@H](N)C3)nc2cc1F"
  half-life at 1 µM, h: 2.27
- Compound: "N#Cc1ccccc1Cn1c(N2CCCC(N)C2)nc2c(Cl)cccc2c1=O (stereo not drawn)"
  half-life at 1 µM, h: 1.33

The compound identified as `COc1cc2nc(N3CCC[C@@H](N)C3)n(Cc3ccccc3C#N)c(=O)c2cc1OC` registered its half-life at 1 µM at 2.43

The compound identified as `N#Cc1ccccc1Cn1c(N2CCC[C@@H](N)C2)nc2ccc(Br)cc2c1=O` registered its half-life at 1 µM at 1.88

###

assay: Half life in dog at 1 mg/kg, iv; format: ADME, organism-based, Canis lupus familiaris; design: dose 1 mg/kg, route intravenous; conditions: in vivo
Metric name: half-life
Give the figure together with its unit, number first.

The compound identified as `Cl.Cn1c(=O)cc(N2CCC[C@@H](N)C2)n(Cc2ccccc2C#N)c1=O` registered its half-life at 2.93 h

###

experiment: in vitro; details: rat, liver microsomes
Everything with half-life at 1 µM lower than 30 min is NOT MET; everything else, including exactly 30 min, is MET.

Consider the following illustrative entries.
- Compound: "COc1cc2nc(N3CCC[C@@H](N)C3)n(Cc3ccccc3C#N)c(=O)c2cc1OC"
  Label class: "MET"
- Compound: "N#Cc1ccccc1Cn1c(N2CCC[C@@H](N)C2)nc2ccc(Br)cc2c1=O"
  Label class: "MET"
- Compound: "COc1ccc2nc(N3CCC[C@@H](N)C3)n(Cc3ccccc3C#N)c(=O)c2c1"
  Label class: "NOT MET"

-- ask Hi, just wondering whether `N#Cc1ccccc1Cn1c(N2CCC[C@@H](N)C2)nc2ccc(Cl)cc2c1=O` shows half-life at 1 µM of 30 min or higher.
-- reply MET

-- ask Hi, just wondering whether `N#Cc1ccccc1Cn1c(N2CCC[C@@H](N)C2)nc2ccc(F)cc2c1=O` shows half-life at 1 µM of 30 min or higher.
-- reply MET

-- ask Hi, just wondering whether `N#Cc1ccccc1Cn1c(N2CCC[C@@H](N)C2)nc2cc(N3CCOCC3)c(F)cc2c1=O` shows half-life at 1 µM of 30 min or higher.
-- reply NOT MET

-- ask Hi, just wondering whether N#Cc1ccccc1Cn1c(N2CCCC(N)C2)nc2c(Cl)cccc2c1=O (stereo not drawn) shows half-life at 1 µM of 30 min or higher.
-- reply NOT MET

-- ask Hi, just wondering whether `COc1cc2c(=O)n(Cc3ccccc3C#N)c(N3CCC[C@@H](N)C3)nc2cc1F` shows half-life at 1 µM of 30 min or higher.
-- reply MET

###

assay: Clearance in rat at 1 mg/kg, iv and 10 mg/kg, po; type: ADME, organism-based; details: in vivo
Metric name: clearance (mL/min/kg)
Kindly answer with a numeric value in mL/min/kg, unit omitted.

The molecule identified as `N#Cc1ccccc1Cn1c(N2CCC[C@@H](N)C2)nc2ccc(F)cc2c1=O.O=C(O)C(F)(F)F` registered its clearance at 20.6

###

assay: Half life in dog at 3 mg/kg, po; assay type: ADME, organism-based, Canis lupus familiaris; set-up: dose 3 mg/kg, route oral; details: in vivo
Metric name: half-life (min)
Kindly answer with a numeric value in min, unit omitted.

The compound identified as `Cl.Cn1c(=O)cc(N2CCC[C@@H](N)C2)n(Cc2ccccc2C#N)c1=O` registered its half-life at 182

###

assay: Volume of distribution at steady state in dog at 1 mg/kg, iv and 3 mg/kg, po; type: ADME, organism-based, Canis lupus familiaris; details: in vivo, read-out: Vdss
Metric name: Vd (L/kg)
Kindly answer with a numeric value in L/kg, unit omitted.

The compound identified as `Cl.Cn1c(=O)cc(N2CCC[C@@H](N)C2)n(Cc2ccccc2C#N)c1=O` registered its Vd at 3.51

###

assay: in vitro; conditions: human, microsomes
Metric name: half-life at 1 µM (h)
Kindly answer with a numeric value in h, unit omitted.

- Structure: "N#Cc1ccccc1Cn1c(N2CCC[C@@H](N)C2)nc2cccc(F)c2c1=O"
  Result value: 2.08

For the next question, use this compound.
The compound identified as `N#Cc1ccccc1Cn1c(N2CCC[C@@H](N)C2)nc2c(Cl)cc(Cl)cc2c1=O` registered its half-life at 1 µM at 1.07

###

assay: Clearance in monkey at 1.1 mg/kg, iv and 10 mg/kg, po; format: ADME, organism-based, Macaca mulatta; conditions: rhesus monkey, in vivo
Metric name: clearance (mL/min/kg)
Kindly answer with a numeric value in mL/min/kg, unit omitted.

The molecule identified as Cn1c(=O)cc(N2CCC[C@@H](N)C2)n(Cc2ccccc2C#N)c1=O.O=C(O)c1ccccc1 [ALOGLIPTIN BENZOATE] registered its clearance at 8.81

###

assay: Volume of distribution at steady state in rat at 1 mg/kg, iv and 10 mg/kg, po; format: ADME, organism-based; details: in vivo, read-out: Vdss
Metric name: Vd (L/kg)
Kindly answer with a numeric value in L/kg, unit omitted.

The molecule identified as `N#Cc1ccccc1Cn1c(N2CCC[C@@H](N)C2)nc2ccc(F)cc2c1=O.O=C(O)C(F)(F)F` registered its Vd at 2.87

###

assay: in vitro; details: rat, microsomes
Metric name: half-life at 1 µM (min)
Kindly answer with a numeric value in min, unit omitted.

Reference set (2 entries):
- Structure: "N#Cc1ccccc1Cn1c(N2CCC[C@@H](N)C2)nc2ccccc2c1=O"
  half-life at 1 µM, min: 2.5
- Structure: "N#Cc1ccccc1Cn1c(N2CCC[C@@H](N)C2)nc2c(Cl)cc(Cl)cc2c1=O"
  half-life at 1 µM, min: 17

The compound identified as `N#Cc1ccccc1Cn1c(N2CCC[C@@H](N)C2)nc2cccc(F)c2c1=O` registered its half-life at 1 µM at 1.8

###

assay: Half life in rat at 1 mg/kg, iv; format: ADME, organism-based; design: dose 1 mg/kg, route intravenous; conditions: in vivo
Metric name: half-life

The compound identified as `N#Cc1ccccc1Cn1c(N2CCC[C@@H](N)C2)nc2ccc(F)cc2c1=O.O=C(O)C(F)(F)F` registered its half-life at 2.6 h

###

test: AUC in rat at 10 mg/kg, po; type: ADME, organism-based; design: dose 10 mg/kg, route oral; conditions: plasma
Metric name: AUC (ng·h/mL)
Kindly answer with a numeric value in ng·h/mL, unit omitted.

The compound identified as `N#Cc1ccccc1Cn1c(N2CCC[C@@H](N)C2)nc2ccc(F)cc2c1=O.O=C(O)C(F)(F)F` registered its AUC at 7560
